System: HT29 colon
Test Details: NCI tumour cell line growth inhibition, 48 h
# binarize TGI: threshold 30 µM inclusive, high side label 1, low side label 0

Given Clc1ccccc1C(n1cc(Br)cn1)n1cc(Br)cn1 , state whether its TGI is at least 30 µM.
label 0

Given CCOC(=O)C(SCCO)C(C(=O)OCC)n1ccc(N)nc1=O (stereo not given) , state whether its TGI is at least 30 µM.
label 1

Given CCCOc1ccc(/C(Cl)=C(\C=O)c2ccc(OC)c(OC)c2)cc1OCCC , state whether its TGI is at least 30 µM.
label 0

Given C/C(=N\NC(=O)CC(=O)Nc1ccc(C)cc1)c1cc2ccccc2oc1=O , state whether its TGI is at least 30 µM.
label 1

Given Nc1nc(-c2ccccc2)c(-c2ccccc2)c(-c2nc(N)nc(-c3ccccc3)c2-c2ccccc2)n1 , state whether its TGI is at least 30 µM.
label 1

Given CCCCc1ccc(Nc2nc3c(ncn3C3OC(COC(C)=O)C(OC(C)=O)C3OC(C)=O)c(=O)[nH]2)cc1 (stereo not given) , state whether its TGI is at least 30 µM.
label 1

Given CCN(CC)CC(O)c1ccc2ccc3ccccc3c2c1 (stereo not given) , state whether its TGI is at least 30 µM.
label 0

Given Nc1nnc2nc(CC(=O)/C=C/c3ccccc3)c(=O)[nH]n12 , state whether its TGI is at least 30 µM.
label 1

Given Clc1cc2nc(C3CCCO3)[nH]c2cc1Cl (stereo not given) , state whether its TGI is at least 30 µM.
label 1

These measurements were taken from PubChem BioAssay (NCI).
